Provide the reported log10 intrinsic clearance, rat liver microsomes of each item.
Recall that a logarithmic scale is used here: each number is log10 of intrinsic clearance, rat liver microsomes in mL/min/kg.

Ask: Reported log10 intrinsic clearance, rat liver microsomes, compound O=C(C1CCCN(c2ccccn2)C1)N1CCc2ccccc2C1 (stereo unspecified) : ____
Result: 3.18

Ask: Entry "CC(C)CCN1CCC(CNC(=O)C2CC=CC2)CC1" : reported log10 intrinsic clearance, rat liver microsomes = ?
Result: 2.15

Ask: For "CNC(=O)c1cnc(/C=C/c2csc(-c3cccs3)n2)s1" , what is its reported log10 intrinsic clearance, rat liver microsomes?
Result: 2.34

Ask: So what's the measured log10 intrinsic clearance, rat liver microsomes for this one? "Cc1cccc2sc(NC(=O)C(C)(C)C)nc12"
Result: 2.32

Ask: I would be grateful if you could share the reported log10 intrinsic clearance, rat liver microsomes for "CC(C)n1cc(-c2ccc3c(c2)N(C)CC3)c2c(NS(=O)(=O)c3ccn(C)n3)ccnc21" .
Result: 2.06

Ask: Recorded log10 intrinsic clearance, rat liver microsomes of "Cc1ccc(Oc2ccc(Cl)cc2NC(=O)CN(C)CC(=O)N(C)C)cc1" , please.
Result: 3.38

Ask: Given the entry "Cc1nc(Cl)cc(Nc2cnn(C(C)(C)C)c2)n1" , report its measured log10 intrinsic clearance, rat liver microsomes.
Result: 1.33

Ask: Find the recorded log10 intrinsic clearance, rat liver microsomes belonging to "Cc1ncsc1CN1CCCN(c2nc3ccccc3[nH]2)CC1" and report it.
Result: 2.71

Ask: Name the reported log10 intrinsic clearance, rat liver microsomes value associated with the compound "CCOc1cc2c(cc1CCC(=O)N1CCC(Cc3ncncc3C(N)=O)CC1)CCC2"
Result: 3.22
